Biological target: MARK4 (Homo sapiens, UniProt Q96L34)
Construct: made in house
Sequence (Q96L34 whole entry): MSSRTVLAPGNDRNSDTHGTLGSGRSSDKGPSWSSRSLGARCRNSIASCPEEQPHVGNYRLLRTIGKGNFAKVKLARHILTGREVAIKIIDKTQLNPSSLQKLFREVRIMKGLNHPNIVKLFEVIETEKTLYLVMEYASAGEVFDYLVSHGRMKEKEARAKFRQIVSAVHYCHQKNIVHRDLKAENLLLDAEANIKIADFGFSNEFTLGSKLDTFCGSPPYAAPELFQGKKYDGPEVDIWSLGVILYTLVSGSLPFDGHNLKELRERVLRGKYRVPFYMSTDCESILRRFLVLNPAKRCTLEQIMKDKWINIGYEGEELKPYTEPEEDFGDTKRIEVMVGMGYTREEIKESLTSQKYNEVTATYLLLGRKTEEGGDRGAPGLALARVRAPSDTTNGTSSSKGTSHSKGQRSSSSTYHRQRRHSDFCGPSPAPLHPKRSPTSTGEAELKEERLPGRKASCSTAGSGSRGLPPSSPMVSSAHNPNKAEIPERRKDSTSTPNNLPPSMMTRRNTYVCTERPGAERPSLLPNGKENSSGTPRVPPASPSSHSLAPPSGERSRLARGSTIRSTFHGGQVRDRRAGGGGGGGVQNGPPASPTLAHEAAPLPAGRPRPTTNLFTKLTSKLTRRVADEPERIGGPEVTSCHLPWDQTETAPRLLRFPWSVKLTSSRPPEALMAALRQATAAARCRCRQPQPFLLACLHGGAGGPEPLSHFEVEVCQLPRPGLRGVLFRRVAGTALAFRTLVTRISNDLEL
Experiment: Fluorescence quenching binding study of MARK4 with DP and RT
Conditions: K (binding constant), 293 K; modified Stern−Volmer plot
Counter-ions that a name gives are not always drawn.
Quantity Name: Kd (nM)
State just the number; it will be interpreted in nM.

Query: Answer with the recorded Kd of CCN(C)C(=O)Oc1cccc([C@H](C)N(C)C)c1 [RT, rivastigmine tartrate] only.
Result: 9.52

* * *

Biological target: MARK4 (Homo sapiens)
Construct: made in house
Assay: Fluorescence quenching binding study of MARK4 with DP and RT
Conditions: K (binding constant), 296 K; modified Stern−Volmer plot
Structures can show the parent of a compound that is named as a salt.
Quantity Name: Kd
Record the result as number plus unit.

Query: Return Kd for the following compound: CCN(C)C(=O)Oc1cccc([C@H](C)N(C)C)c1 [RT, rivastigmine tartrate]
Result: 625 nM
